// provenance: patent US20240002495A1

assayed-system: T1, biotinylated 6His tag-AviTag-linked mature human IL-33 (residues 112 to 270) (human, UniProt O95760 112-270, biotin on the AviTag portion (BirA))
T1 construct: made in E. coli; also called biotinylated human IL-33 protein
T1 sequence: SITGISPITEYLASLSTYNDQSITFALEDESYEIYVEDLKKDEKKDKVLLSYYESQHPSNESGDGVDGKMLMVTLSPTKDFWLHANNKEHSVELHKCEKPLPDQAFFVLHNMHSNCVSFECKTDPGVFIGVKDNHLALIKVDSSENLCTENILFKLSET
experiment-description: SPR, IL-33 on chip, Fab supernatant as analyte
Experimental: The library after the enrichment was used to construct a library of Escherichia coli secreting and expressing Fab. […] The sensorgram was subjected to interspot correction and blank correction using an SPR data analysis program (ProteOn Manager v3.1.0, available from Bio-Rad Laboratories, Inc.), and then values of koff were determined by off-rate analysis of Langmuir model.

binder: A28-2F01 (Fab) (Fab, V domains shown, Fab secreted by E. coli, tested as culture supernatant; also called V26) VH: EVQLLESGGGLVQPGGSLRLSCAASGFTFSNYYMHWVRQAPGKGLEWVSSISSRSSHQYYAGSVKGRFTISRDNSKNTLYLQMNSLRAEDTAVYYCARLGLRHDAFDIWGQGTLVTVSS VL: QSVLTQPPSASGTPGQRVTISCSGSSSNIGHNAVWWYQQLPGTAPKLLIYASNMRRMGVPDRFSGSKSGTSASLAISGLRSEDEADYYCAAWDDSQKAVVFGGGTKLTVL
Human IL-33 Binding Amount (RU): 289
--
binder: A13-1F05 (Fab) (Fab, V domains shown, Fab secreted by E. coli, tested as culture supernatant; also called V5) VH: EVQLLESGGGLVQPGGSLRLSCAASGFTFSDYYMNWVRQAPGKGLEWVSSISRYSGYIYYADSVKGRFTISRDNSKNTLYLQMNSLRAEDTAVYYCARDIGGMDVWGQGTLVTVSS VL: QSVLTQPPSASGTPGQRVTISCTGSSSNIGAVYNVHWYQQLPGTAPKLLIYRNNQRPSGVPDRFSGSKSGTSASLAISGLRSEDEADYYCQSYDSSRWVFGGGTKLTVL
Human IL-33 Binding Amount (RU): 127
--
binder: A28-1G07 (Fab) (Fab, V domains shown, Fab secreted by E. coli, tested as culture supernatant; also called V24) VH: EVQLLESGGGLVQPGGSLRLSCAASGFTFSNYYMHWVRQAPGKGLEWVSSISARSSYRYYADSVKGRFTISRDNSKNTLYLQMNSLRAEDTAVYYCARLATRHSAFDIWGQGTLVTVSS VL: QSVLTQPPSASGTPGQRVTISCSGSSSNIGHNAVSWYQQLPGTAPKLLIYASNMRRLGVPDRFSGSKSGTSASLAISGLRSEDEADYYCGAWDDSQKVVVFGGGTKLTVL
Human IL-33 Binding Amount (RU): 165
--
binder: A25-2B02 (Fab) (Fab, V domains shown, Fab secreted by E. coli, tested as culture supernatant; also called V10) VH: EVQLLESGGGLVQPGGSLRLSCAASGFTFSNYYMHWVRQAPGKGLEWVSSISARSSYIYYADSVKGRFTISRDNSKNTLYLQMNSLRAEDTAVYYCARLATRNNAFDIWGQGTLVTVSS VL: QSVLTQPPSASGTPGQRVTISCSGSSSNIGRNAVNWYQQLPGTAPKLLIYASNMRVLGVPDRFSGSKSGTSASLAISGLRSEDEADYYCWAWDDSQKAVVFGGGTKLTVL
Human IL-33 Binding Amount (RU): 256
--
binder: A28-2C06 (Fab) (Fab, V domains shown, Fab secreted by E. coli, tested as culture supernatant; also called V25) VH: EVQLLESGGGLVQPGGSLRLSCAASGFTFSNYYMHWVRQAPGKGLEWVSSISARSSYIYYAGSVKGRFTISRDNSKNTLYLQMNSLRAEDTAVYYCARLGTRRVAFDIWGQGTLVTVSS VL: QSVLTQPPSASGTPGQRVTISCSGSSSNIGRNAVNWYQQLPGTAPKLLIYASNMRGMGVPDRFSGSKSGTSASLAISGLRSEDEADYYCSAWDDSQKVVVFGGGTKLTVL
Human IL-33 Binding Amount (RU): 123
